# Tested on: HEK-293T
# Assay text: Multiplex assay against HEK293T
# Assay type: toxicity, cell-based
# Condition context: human, 12 h, 10 µM, compound concentration 10 uM, replicate 2
# Population Mitotic Cells (%) values compiled below
Readout label: Population Mitotic Cells (%)

> print(dat)
                                    compound  reported.value
 1  CC[C@@]1(O)C(=O)OCc2c1cc1n(c2=O)Cc2cc3ccccc3nc2-1 [CAMPTOTHECIN]              80
 2  CCCc1cc(C)[nH]c(=O)c1CNC(=O)c1cc(-c2ccc(N3CCN(C(C)C)CC3)nc2)cc2c1cnn2C(C)C               3
 3  CCCCCNC(=N)N/N=C/c1c[nH]c2ccc(OC)cc12.O=C(O)/C=C\C(=O)O [TEGASEROD MALEATE]               3
 4  COc1ccccc1-c1cc(Nc2cccc(CS(N)(=O)=O)c2)ncn1              91
 5  CCOC(=O)CCNc1cc(N2CCc3ccccc3CC2)nc(-c2ccccn2)n1              73
 6  CN(c1cc(C(F)(F)F)nc(OCCC(=O)O)n1)c1cccc2c1CCC2              91
 7  c1ccc(-c2oc3ncnc(NC[C@@H]4CCCO4)c3c2-c2ccccc2)cc1              56
 8  C=CC(=O)Nc1cc(-n2c(=O)ccc3cnc4ccc(-c5ccc(NS(C)(=O)=O)cc5)cc4c32)ccc1C              86
 9  N#CCNC(=O)c1ccc(-c2ccnc(Nc3ccc(N4CCOCC4)cc3)n2)cc1 [MOMELOTINIB]              89
10  C[C@@H](Oc1cc(-n2cnc3ccc(CN4CCN(C)CC4)cc32)sc1C(N)=O)c1ccccc1C(F)(F)F [GSK-461364]              33
11  Oc1cccc(-c2nc(N3CCOCC3)c3oc4ncccc4c3n2)c1 [PI-103]              35
12  Cl.NC[C@@H]1O[C@H](C23CC4CC(CC(C4)C2)C3)Cc2c1ccc(O)c2O              62
